Source: the supplement of paper PMC10724198

System: Saccharomyces cerevisiae;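 also: PSI is a weighted mean of each variant's read distribution over the sorted stability bins, computed only for variants having over 10 reads in total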
assay_summary: protein stability index of tFT-peptide fusion in deletion strain of DAS1 (PSI (0-1 scale)); higher = more stable (slower turnover)
Would you kindly list protein stability index for each of these sequences?
Give bare numbers.

Consider the reported protein stability index for these sequences:
# sequence_input, experimental_result
rows = [
    ("KKHKKQQKQKIN", 0.59),
    ("PSLAAGFWRVVG", 0.678),
    ("VRGAVGGWRCVG", 0.658),
]

Please state, for each entry, its recorded protein stability index.
1. RIIQPLPVQFLN
2. VRGAVGGWRNVG
3. PSLAGSFWRVVG

0.598
0.676
0.667

Please state, for each entry, its recorded protein stability index.
1. ARWRVKLWRGAS
2. LKILRQLMNHQN

1. 0.684
2. 0.665
